- Subject of test: MDM2 (UniProt Q00987 1-491)
- Sequence (Q00987 whole entry): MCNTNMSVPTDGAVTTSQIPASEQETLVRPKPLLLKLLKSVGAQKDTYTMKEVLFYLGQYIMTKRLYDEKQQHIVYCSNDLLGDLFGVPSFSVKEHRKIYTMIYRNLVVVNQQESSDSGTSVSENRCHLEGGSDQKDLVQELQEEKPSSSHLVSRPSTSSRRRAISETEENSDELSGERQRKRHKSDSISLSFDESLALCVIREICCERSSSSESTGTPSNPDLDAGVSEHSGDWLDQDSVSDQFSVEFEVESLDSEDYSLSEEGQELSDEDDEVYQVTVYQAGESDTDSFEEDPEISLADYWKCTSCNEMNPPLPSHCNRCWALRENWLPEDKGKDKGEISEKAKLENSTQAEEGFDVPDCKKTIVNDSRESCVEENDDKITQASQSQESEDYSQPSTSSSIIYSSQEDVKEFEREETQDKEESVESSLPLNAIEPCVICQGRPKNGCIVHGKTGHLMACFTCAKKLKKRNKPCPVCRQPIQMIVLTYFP
- Test summary: fluorescence polarisation
Quantity: IC50

Task: # IC50 lookup, item LTFEHYWALLT (designed binder, C-terminal amide) [PF4P_pDI]
Result: < 1 nM

Values were extracted from paper PMC8386104.
